Values from patent US20240368668A1

substances and their reported logFC.mEQ.over.Luc
assay.target: mouse ADAMTS7 (Mus musculus, UniProt Q68SA9, E373Q)
Construct: Full-length mouse Adamts7 1-1857 (Uniprot Q68SA9, WT or E373Q catalytic mutant); expressed in transfected cells; host or cells: Human Coronary Artery Smooth Muscle Cells (HCA-SMC, Lonza), adenovirus 50 MOI
Sequence (Q68SA9 221-1657 E373Q): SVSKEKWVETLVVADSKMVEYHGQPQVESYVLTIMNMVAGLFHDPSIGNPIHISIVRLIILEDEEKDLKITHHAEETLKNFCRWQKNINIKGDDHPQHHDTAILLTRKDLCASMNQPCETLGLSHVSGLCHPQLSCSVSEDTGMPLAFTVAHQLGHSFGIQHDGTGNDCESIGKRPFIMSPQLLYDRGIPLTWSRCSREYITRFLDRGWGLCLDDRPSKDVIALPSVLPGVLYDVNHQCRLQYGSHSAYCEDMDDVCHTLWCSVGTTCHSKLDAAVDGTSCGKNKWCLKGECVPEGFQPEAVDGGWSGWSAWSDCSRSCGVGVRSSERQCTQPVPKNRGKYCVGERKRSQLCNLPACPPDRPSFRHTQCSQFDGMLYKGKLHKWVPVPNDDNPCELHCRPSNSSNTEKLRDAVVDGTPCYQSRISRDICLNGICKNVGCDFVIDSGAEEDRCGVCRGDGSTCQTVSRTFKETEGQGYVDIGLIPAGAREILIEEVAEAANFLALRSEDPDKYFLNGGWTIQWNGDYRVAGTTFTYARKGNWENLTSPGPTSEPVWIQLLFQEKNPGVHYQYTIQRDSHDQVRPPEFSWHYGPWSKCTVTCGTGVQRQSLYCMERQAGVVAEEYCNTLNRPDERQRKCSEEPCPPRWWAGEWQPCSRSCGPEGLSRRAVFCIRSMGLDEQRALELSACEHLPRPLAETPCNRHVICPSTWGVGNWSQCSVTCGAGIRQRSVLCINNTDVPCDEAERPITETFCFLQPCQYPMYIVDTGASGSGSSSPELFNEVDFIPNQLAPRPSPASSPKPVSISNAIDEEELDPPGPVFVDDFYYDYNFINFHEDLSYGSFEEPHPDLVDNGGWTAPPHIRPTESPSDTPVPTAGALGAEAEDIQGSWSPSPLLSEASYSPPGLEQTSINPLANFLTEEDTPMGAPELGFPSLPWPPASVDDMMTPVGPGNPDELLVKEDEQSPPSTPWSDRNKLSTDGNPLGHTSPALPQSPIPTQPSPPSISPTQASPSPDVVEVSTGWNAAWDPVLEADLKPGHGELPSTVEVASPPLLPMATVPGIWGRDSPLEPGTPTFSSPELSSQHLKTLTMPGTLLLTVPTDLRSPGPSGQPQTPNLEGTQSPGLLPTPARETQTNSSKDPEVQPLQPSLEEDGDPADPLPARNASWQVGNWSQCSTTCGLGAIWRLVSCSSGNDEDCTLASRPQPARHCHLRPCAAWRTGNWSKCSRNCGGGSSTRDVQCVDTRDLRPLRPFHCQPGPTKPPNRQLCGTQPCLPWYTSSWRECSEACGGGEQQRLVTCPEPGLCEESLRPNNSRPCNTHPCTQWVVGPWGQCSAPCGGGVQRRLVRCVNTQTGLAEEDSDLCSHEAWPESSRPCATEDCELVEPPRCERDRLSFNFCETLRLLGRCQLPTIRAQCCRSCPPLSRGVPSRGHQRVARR
assay.notes: TMT10 TAILS N-terminomics, SMC2 experiment (process replicates, trypsin/AspN digest)
Assay type: cell-based
cond: SMC2_TAILS HC; log fold change of N-terminal peptide, Ad-mADAMTS7 EQ over Luc
Please give only the number in your answer, with no unit.

Record excerpt, results attached:
1. NID2_291 (HSSVPLGR; listed as Homo sapiens): 0.00
2. NID1_360 (FHQQHPQVI; listed as Homo sapiens): −0.22
3. ZSCAN4_25 (FQQSQGPAVQR; listed as Homo sapiens): −0.09
4. PTPRF_1859 (MRYEGVVDMFQTVKTLR; listed as Homo sapiens): −0.08
5. LTBP1_393 (LTATNFR; listed as Homo sapiens): 0.29
6. MAP4_815 (AVASTGPSSR; listed as Homo sapiens): −0.02
7. MMP1_185 (FQPGPGIGG; listed as Homo sapiens): −0.37
8. LTBP3_103 (LTGSGFR; listed as Homo sapiens): −0.92
9. LOXL2_45 (HQPQAPANVAKIQLR; listed as Homo sapiens): 0.11
10. LTBP2_502 (LVENSVETRPPPWLPASPGHSLW; listed as Homo sapiens): −0.18

Query string: I'd like to know its logFC.mEQ.over.Luc. The substance in question is LOXL2_37 (FQQPAPEYHQPQAPANVAKIQLR; listed as Homo sapiens)
Result string: −0.03

Query string: Could you tell me which logFC.mEQ.over.Luc is on file for TRGC2_86 (HRCIVRHENNK; listed as Homo sapiens) ?
Result string: 0.23
